Experiment: Drug degradation in Eagle's medium containing 10 % heat-inactivated horse serum assessed as parent compound after 3 days by reverse-phase liquid chromatography
Assay type: physicochemical
Details: read-out: Stability
Measurement label: remaining at 72 h (%)
Only the number, expressed in %, is required.

Lookup result for CCCCCCCCCCCCCCCC(=O)O[C@@H]1[C@@H]2OP(=O)(O)OC[C@H]2O[C@H]1n1cnc2c(=S)[nH]cnc21 ; measured remaining at 72 h: 20

###

Test system: S49
Assay: Cytotoxicity against HGPRTase-deficient mouse S49 cells assessed as growth inhibition after 72 hrs by trypan blue exclusion assay
Type: functional, cell-based
Conditions: S49, 72 h
Measurement label: EC50

EC50 for S49 with input CC(C)C(=O)O[C@@H]1[C@@H]2OP(=O)(O)OC[C@H]2O[C@H]1n1cnc2c(=S)[nH]cnc21 equals 479 µM

Field EC50 (S49), entry CC(C)(C)C(=O)O[C@@H]1[C@@H]2OP(=O)(O)OC[C@H]2O[C@H]1n1cnc2c(=S)[nH]cnc21 : 237 µM

Measured EC50 (S49), entry Sc1ncnc2nc[nH]c12 [MERCAPTOPURINE ANHYDROUS] : > 1000 µM

For the compound CCCCCCCCCCCC(=O)O[C@@H]1[C@@H]2OP(=O)(O)OC[C@H]2O[C@H]1n1cnc2c(=S)[nH]cnc21 , the measured EC50 on S49 was 109 µM

Given the compound CCCC(=O)O[C@@H]1[C@@H]2OP(=O)(O)OC[C@H]2O[C@H]1n1cnc2c(=S)[nH]cnc21 and test system S49, the measured EC50 is 426 µM

Given the compound CC(=O)O[C@@H]1[C@@H]2OP(=O)(O)OC[C@H]2O[C@H]1n1cnc2c(=S)[nH]cnc21 and test system S49, the measured EC50 is 655 µM

Record OC[C@H]1O[C@@H](n2cnc3c(S)ncnc32)[C@H](O)[C@@H]1O ; system S49; EC50 = 400 µM

Measured EC50 (S49), entry CCCCCC(=O)O[C@@H]1[C@@H]2OP(=O)(O)OC[C@H]2O[C@H]1n1cnc2c(=S)[nH]cnc21 : 210 µM
